Measurement Protocol: Human HepG2 cell viability assay in 384 well format
Format: toxicity, cell-based
Design: dose 125 nL, time 70.5 hour; concentration not given beside the values
Particulars: HepG2 cells, read-out: Inhibition
Metric Name: cytotoxicity at 70.5 h (%)
Answers are plain numbers, in %.

>  <Molecule>
CCOc1ccc(NC2CCN(CC(F)(F)F)C2=O)cc1C (centres undefined)

>  <cytotoxicity at 70.5 h, %>
-5.71

$$$$
>  <Molecule>
CC(=O)c1ccc(C(=O)N2C[C@@H](CN3CCCC3)[C@@H](CO)C2)cc1

>  <cytotoxicity at 70.5 h, %>
12.4

$$$$
>  <Molecule>
Cc1ccc(C(=O)N2CCN(Cc3ccccc3)CC2)n1C

>  <cytotoxicity at 70.5 h, %>
21

$$$$
>  <Molecule>
Cc1cccc(-n2cnc(Cl)c2C(=O)O)c1

>  <cytotoxicity at 70.5 h, %>
-16.5

$$$$

Consider the following items and state reported cytotoxicity at 70.5 h for each.
1. Cc1cnn(CCNCc2csc(COc3ccccc3)n2)c1
2. CN(C)Cc1ccnc(C2CCCN2Cc2ccncc2)n1 (centres undefined)

1. -0.421
2. 18.5

* * *

Measurement Protocol: Human HepG2 cell viability assay in 384 well format
Type: toxicity, cell-based
Parameters: dose 125 nL, time 70.5 hour; concentration not given beside the values
Particulars: HepG2 cells, read-out: Inhibition
Metric Name: cytotoxicity at 70.5 h (%)
Answers are plain numbers, in %.

Some molecules with recorded cytotoxicity at 70.5 h:
>  <Molecule>
CS(=O)(=O)c1ccc(OCCNCc2c(F)cccc2F)cc1

>  <Readout Units>
%

>  <cytotoxicity at 70.5 h>
-3.48

$$$$
>  <Molecule>
NC(=O)CSc1ccccc1NC(=O)C1CCCC1

>  <Readout Units>
%

>  <cytotoxicity at 70.5 h>
-5.87

$$$$
>  <Molecule>
O=C(O)CCNC(=O)Cc1csc(-c2cccc(Cl)c2)n1

>  <Readout Units>
%

>  <cytotoxicity at 70.5 h>
-14

$$$$

Consider the following items and state reported cytotoxicity at 70.5 h for each.
1. CC(C)c1n[nH]c(C2CN(C(=O)Cn3ccccc3=O)CCO2)n1 (configuration not stated)
2. O=C(c1ccc(Cl)c(Cl)c1)N1CCCCC1C1OCCO1 (configuration not stated)
3. Cc1nn2c(N3CCC(C#N)CC3)cc(-c3ccccc3)nc2c1C
4. Cc1nc(C)c(CC(=O)N2C[C@H]3CC[C@@H]2CN(c2cnccn2)C3)s1
5. O=C(N[C@@H]1CN[C@H]2CCCO[C@H]21)c1cccnc1
6. CN1[C@H](CN2CCCC2)C[C@@H]2CN(Cc3ccoc3)CC[C@@H]21

-2.65
-4.22
1.27
-4.55
1.62
4.1

Consider the following items and state reported cytotoxicity at 70.5 h for each.
1. O=C(CN1CCCS1(=O)=O)Nc1ccc(OC(F)F)cc1
2. O=S(=O)(Cc1ccccc1)NCC1CCN(c2cnccn2)CC1
3. COCCNc1nnc(-c2ccc(C)nc2)s1
4. CN(C)CCCN1CC2(CCN(C(=O)C3(C)CCCCO3)CC2)OC1=O (configuration not stated)
5. CCc1nc(C2CCCN(C(=O)c3cc(C(C)C)[nH]n3)C2)no1 (configuration not stated)
6. CCS(=O)(=O)N1C[C@@H](OCc2cccnc2)[C@H]2OCCC[C@H]21
7. Cc1ccc(F)c(S(=O)(=O)Nc2cn(C)cc(Br)c2=O)c1
8. COCCCN1CCCN(C(C)c2nc(C3CC3)no2)CC1 (configuration not stated)

-9.68
4.32
1.91
17.7
-3.59
6.52
-1.44
-4.41

Consider the following items and state reported cytotoxicity at 70.5 h for each.
1. COCC(=O)NC[C@H]1C[C@@H]2CCN1C[C@@H]2CN1CCc2ccccc2C1
2. COc1ncccc1NC(=O)NC(CCCO)c1ccccc1 (configuration not stated)

-12.4
11.2

Consider the following items and state reported cytotoxicity at 70.5 h for each.
1. O=C(Cc1ccsc1)N1C[C@@H]2OCCN(c3cnccn3)[C@@H]2C1
2. CCc1nc(CN2CCN(C(=O)C3CCCCC3)CC2)cs1
3. CC(C)(C)c1nc(CNC(=O)N2CCc3ccccc3C2CO)no1 (configuration not stated)

1. 12.1
2. -12.3
3. -2.31

Reference source: ChEMBL document CHEMBL3507680
